molecular target: Rlig1-AMP (Homo sapiens); construct: made in house; host or cells: E. coli BL21 (DE3), pET15b-Rlig1; experiment: FRET-based high-throughput screening of inhibitors for Rlig1-AMP; format: biochemical; details: HTS hits; without enzyme
REPORTED_ENDPOINT: Raw data [w/o Enzym]
Reply with the value as a number alone.

CC(=O)Nc1ccc(S(=O)(=O)[O-])c2cc(S(=O)(=O)[O-])c(N=Nc3ccc(N=Nc4ccc(S(=O)(=O)[O-])cc4)c4ccc(S(=O)(=O)[O-])cc34)c(O)c12.[Na+].[Na+].[Na+].[Na+] :: 1348
Cn1nc(-c2ccc(C(F)(F)F)cc2)nc2c(=O)n(C)c(=O)nc1-2 :: 17113

Lab note: Rlig1-AMP (Homo sapiens) assay, enter Raw data [w/o Enzym] for CN(C)CCSSCCNC(=O)C1CCN(C(=O)CSc2ccc(Cl)cc2)CC1.O=C(O)C(F)(F)F [6H05 (TFA)] here
10770

GET Raw data [w/o Enzym] | system: Rlig1-AMP (Homo sapiens) | item: COS(=O)(=O)[O-].C[n+]1c2ccccc2nc2ccccc21 [Phenazine (methylsulfate)]
3897

Quote Raw data [w/o Enzym] with test system Rlig1-AMP (Homo sapiens) for CN(C)CCOC(=O)COc1ccc(Cl)cc1.Cl [Meclofenoxate (hydrochloride)]
11312

Provide Raw data [w/o Enzym], system Rlig1-AMP (Homo sapiens), entry CCCC[C@@H](NC(=O)[C@@H](Cc1cn(C(=O)OC)c2ccccc12)NC(=O)[C@H](CC(C)(C)C)NC(=O)N1[C@H](C)CCC[C@@H]1C)C(=O)[O-].[Na+]
10323

Retrieve Raw data [w/o Enzym] on Rlig1-AMP (Homo sapiens); query Cc1cc(-c2cc(O)ccc2Cl)cc2nnc(Nc3ccc(OCCN4CCCC4)cc3)nc12.Cl [TG 100572 (Hydrochloride)]
3338

Retrieve Raw data [w/o Enzym] on Rlig1-AMP (Homo sapiens); query COC(=O)Cc1ccc(C(C)(C)C)cc1 [Methyl p-tert-butylphenylacetate]
10874

Report Raw data [w/o Enzym] under test system Rlig1-AMP (Homo sapiens) for CN1CCC=C(C(=O)O)C1 .
10735

====

assay: in vitro; conditions: human
Quick reference: viability at 24 h, 30 µM of the listed items.
Write it as a number; the unit % goes unstated.

Worked examples follow.
Cc1cc(Nc2ccc(NC(=O)c3ccc(Nc4ccnc5ccccc45)cc3)cc2)nc(N)n1 [Compound 1, SGI-1027, reference compound] :: 51
Nc1nccc(Nc2ccc(NC(=O)c3ccc(Nc4ncnc5ccccc45)cc3)cc2)n1 [Compound 47] :: 86
Cc1cc(Nc2ccc(NC(=O)c3ccc(Nc4ncnc5ccccc45)cc3)cc2)nc(N)n1 [Compound 45] :: 88.8

Fill in viability at 24 h, 30 µM for record Cc1cc(Nc2ccc(NC(=O)c3ccc(Nc4ccnc5[nH]ccc45)cc3)cc2)nc(N)n1 [Compound 46]
7.96

Entry Nc1cc(Nc2ccc(NC(=O)c3ccc(Nc4ccnc5ccccc45)cc3)cc2)ccn1 [Compound 36] needs its viability at 24 h, 30 µM filled in; supply it.
90.4

====

target: Rlig1-AMP (Homo sapiens, UniProt Q8N999); construct: made in house; host or cells: E. coli BL21 (DE3), pET15b-Rlig1; test: FRET-based high-throughput screening of inhibitors for Rlig1-AMP; format: biochemical; conditions: sheet HTS hits; MedChemExpress library
Sequence (Q8N999 whole entry): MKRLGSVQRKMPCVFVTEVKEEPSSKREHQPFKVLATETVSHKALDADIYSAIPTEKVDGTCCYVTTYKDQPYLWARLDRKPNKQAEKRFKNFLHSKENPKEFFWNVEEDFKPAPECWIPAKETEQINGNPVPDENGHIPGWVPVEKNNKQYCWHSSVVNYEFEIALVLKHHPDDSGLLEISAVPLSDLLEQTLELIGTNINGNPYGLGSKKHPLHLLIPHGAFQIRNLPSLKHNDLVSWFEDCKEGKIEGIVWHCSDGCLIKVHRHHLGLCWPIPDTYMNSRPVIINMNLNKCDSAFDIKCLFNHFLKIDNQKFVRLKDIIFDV
REPORTED_ENDPOINT: 1-D Distance.npi
The answer should be a number; do not append a unit.

Consider the following illustrative entries.
C/C1=C2N=C(/C=C3N=C(/C(C)=C4\[N-]C(C(CC(N)=O)C4(C)CCC(=O)NCC(C)OP(=O)([O-])OC4C(CO)OC(n5cnc6cc(C)c(C)cc65)C4O)C4(C)N=C1C(CCC(N)=O)C4(C)CC(N)=O)C(CCC(N)=O)C\3(C)C)C(CCC(N)=O)C/2(C)CC(N)=O.Cl.[Co+3].[OH-] (centres unmarked) [Hydroxocobalamin (monohydrochloride)] :: 101.9
CC(=O)O[C@H]1C[C@@]2(C)[C@@H](C[C@@H](O)[C@H]3[C@@]4(C)CC[C@@H](O)[C@@H](C)[C@@H]4CC[C@@]32C)/C1=C(\CCC=C(C)C)C(=O)[O-].[Na+] [Fusidic acid (sodium salt)] :: 75.4657
COc1ccc(-c2coc3cc(O)cc(O)c3c2=O)cc1 :: 79.7493
C/C1=C2/[N-][C@H]([C@H](CC(N)=O)[C@@]2(C)CCC(=O)NC[C@H](C)OP(=O)([O-])O[C@H]2[C@@H](O)[C@@H](n3cnc4cc(C)c(C)cc43)O[C@@H]2CO)[C@]2(C)N=C(/C(C)=C3N=C(/C=C4N=C1[C@@H](CCC(N)=O)C\4(C)C)[C@@H](CCC(N)=O)[C@]\3(C)CC(N)=O)[C@@H](CCC(N)=O)[C@]2(C)CC(N)=O.[CH3-].[Co+3] :: 89.4559
Cc1ccc(Cn2cc(CNC3=C(Cl)C(=O)c4cccnc4C3=O)nn2)cc1 :: 96.6155

Give the value of 1-D Distance.npi reported for the following: CC(C)(c1ccc(O)cc1)c1ccc(OCc2cccc(COc3ccc(C(=N)N)cc3)c2)cc1.Cl [BIIL-260 (hydrochloride)]
102.737

For the molecule CC1=NN(c2ccc(C)c(C)c2)C(=O)/C1=N\Nc1cccc(-c2cccc(C(=O)O)c2)c1O.NCCO.NCCO , report 1-D Distance.npi.
92.4928

Quickly give me recorded 1-D Distance.npi for CC(C)(C)OC(=O)CCOCCBr
72.9978

Identify measured 1-D Distance.npi associated with COc1cc2c(NCC3CCN(C)CC3)cc(-c3ccc(C)o3)nc2cc1OCCCN1CCCC1.Cl.Cl.Cl [CM-579 trihydrochloride]
80.8725

Please report 1-D Distance.npi for the following molecule: Cc1ncsc1-c1ccc(CNC(=O)[C@@H]2C[C@@H](O)CN2C(=O)[C@@H](NC(=O)CCN)C(C)(C)C)cc1.Cl.Cl [(S,R,S)-AHPC-C2-NH2 (dihydrochloride)]
76.891

Give me measured 1-D Distance.npi, please, for this molecule: CN(C)C/C=C/C(=O)Nc1ccc(C(=O)Nc2cccc(Nc3cc(-c4c[nH]c5ccccc45)ncn3)c2)cc1 [THZ-P1-2]
94.2865

Reference source: paper PMC11747885
